B1: CDC25A (parent)
chain: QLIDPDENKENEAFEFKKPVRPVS

Variants of: B1
TEST NAME: protein stability index of a GFP-peptide fusion (GPS, HEK-293T) (PSI 1-6); higher = more stable;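 note: lentivirally expressed fusions sorted by FACS into six bins by GFP to DsRed ratio, PSI derived from sequencing read proportions per bin multiplied by bin number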
EXPERIMENTAL CONDITIONS: c terminus: a fixed tail appended
ASSAY METRIC: protein stability index

MUTATION NOTATION: V20D
ASSAY METRIC: protein stability index
REPORTED VALUE: 4.31
//
MUTATION NOTATION: N8K
ASSAY METRIC: protein stability index
REPORTED VALUE: 4.5
//
MUTATION NOTATION: D4A
ASSAY METRIC: protein stability index
REPORTED VALUE: 3.67
//
MUTATION NOTATION: E12K
ASSAY METRIC: protein stability index
REPORTED VALUE: 3.84
//
MUTATION NOTATION: Q1P
ASSAY METRIC: protein stability index
REPORTED VALUE: 4.06
//
MUTATION NOTATION: D4S
ASSAY METRIC: protein stability index
REPORTED VALUE: 3.58
//
MUTATION NOTATION: D6W
ASSAY METRIC: protein stability index
REPORTED VALUE: 3.59
//
MUTATION NOTATION: V23C
ASSAY METRIC: protein stability index
REPORTED VALUE: 3.9
//
MUTATION NOTATION: F14H
ASSAY METRIC: protein stability index
REPORTED VALUE: 4.42
//
MUTATION NOTATION: N8C
ASSAY METRIC: protein stability index
REPORTED VALUE: 4.45
//
MUTATION NOTATION: P22I
ASSAY METRIC: protein stability index
REPORTED VALUE: 4.31
//
MUTATION NOTATION: E10M
ASSAY METRIC: protein stability index
REPORTED VALUE: 3.71
//
MUTATION NOTATION: D6V
ASSAY METRIC: protein stability index
REPORTED VALUE: 3.83
//
MUTATION NOTATION: E12L
ASSAY METRIC: protein stability index
REPORTED VALUE: 3.56
//
MUTATION NOTATION: P5V
ASSAY METRIC: protein stability index
REPORTED VALUE: 3.74
//
MUTATION NOTATION: R21P
ASSAY METRIC: protein stability index
REPORTED VALUE: 4.46
//
MUTATION NOTATION: S24H
ASSAY METRIC: protein stability index
REPORTED VALUE: 2.87
//
MUTATION NOTATION: P5M
ASSAY METRIC: protein stability index
REPORTED VALUE: 3.88
//
MUTATION NOTATION: K17W
ASSAY METRIC: protein stability index
REPORTED VALUE: 3.43
//
MUTATION NOTATION: N11L
ASSAY METRIC: protein stability index
REPORTED VALUE: 4.65
//
MUTATION NOTATION: P19V
ASSAY METRIC: protein stability index
REPORTED VALUE: 4.42
//
MUTATION NOTATION: P19M
ASSAY METRIC: protein stability index
REPORTED VALUE: 3.74
//
MUTATION NOTATION: F16I
ASSAY METRIC: protein stability index
REPORTED VALUE: 3.35
//
MUTATION NOTATION: N11W
ASSAY METRIC: protein stability index
REPORTED VALUE: 4.02
//
MUTATION NOTATION: Q1Y
ASSAY METRIC: protein stability index
REPORTED VALUE: 2.32
//
MUTATION NOTATION: E7R
ASSAY METRIC: protein stability index
REPORTED VALUE: 3.92
//
MUTATION NOTATION: K18R
ASSAY METRIC: protein stability index
REPORTED VALUE: 3.89
//
MUTATION NOTATION: E15D
ASSAY METRIC: protein stability index
REPORTED VALUE: 3.77
//
MUTATION NOTATION: E15T
ASSAY METRIC: protein stability index
REPORTED VALUE: 3.92
//
MUTATION NOTATION: D6F
ASSAY METRIC: protein stability index
REPORTED VALUE: 3.88
//
MUTATION NOTATION: V20T
ASSAY METRIC: protein stability index
REPORTED VALUE: 4.54
//
MUTATION NOTATION: V23P
ASSAY METRIC: protein stability index
REPORTED VALUE: 3.52
//
MUTATION NOTATION: N8A
ASSAY METRIC: protein stability index
REPORTED VALUE: 4.31
//
MUTATION NOTATION: S24L
ASSAY METRIC: protein stability index
REPORTED VALUE: 3.21
//
MUTATION NOTATION: K9H
ASSAY METRIC: protein stability index
REPORTED VALUE: 4.18
//
MUTATION NOTATION: A13I
ASSAY METRIC: protein stability index
REPORTED VALUE: 4.23
